biological target: MAPK14 (human); experiment: radiometric filter-binding kinase assay; details: compound 0.01 µM
Catalogue of compounds with associated residual activity
Report the figure in % without appending any unit label.

Consider the reported residual activity for these compounds:
compound	unit_name	residual activity
CNc1nc(-c2ccc3c(N)n[nH]c3c2)cc(N2C[C@@H](C(=O)NC3CCCCC3)CC[C@H]2C)n1	%	105
CNC(=O)C1[C@H]2O[C@@](C)([C@@H]1N)n1c3ccccc3c3c4c(c5c6ccccc6n2c5c31)C(=O)NC4 (stereo partly specified)	%	106
O=C(Nc1nc2cc(C(F)(F)F)cc(NC3CC3)n2n1)c1cccnc1	%	109

The recorded residual activity for entry `COc1ccc(N(C(=O)Nc2c(C)cccc2C)c2cc(Nc3ccc(N4CCN(C)CC4)cc3)ncn2)c(OC)c1` equals 121

The recorded residual activity for entry COc1cc(O)c2c(c1)[C@H]1OC1C[C@H](O)[C@H](O)C(=O)/C=C\C[C@H](C)OC2=O (stereo partly specified) equals 108

The recorded residual activity for entry `C/C(=C1/C(=O)Nc2ccc(NC(N)=O)cc21)c1ccc[nH]1` equals 86

---

biological target: EPHB1 (human); assay: radiometric filter-binding kinase assay; conditions: compound 0.01 µM
Catalogue of molecules with associated residual activity
Report the figure in % without appending any unit label.

Consider the reported residual activity for these molecules:
molecule	residual activity [%]
CNC(=O)C1[C@H]2O[C@@](C)([C@@H]1N)n1c3ccccc3c3c4c(c5c6ccccc6n2c5c31)C(=O)NC4 (some centres undefined)	41
COc1cc(O)c2c(c1)[C@H]1OC1C[C@H](O)[C@H](O)C(=O)/C=C\C[C@H](C)OC2=O (some centres undefined)	97
COc1ccc(N(C(=O)Nc2c(C)cccc2C)c2cc(Nc3ccc(N4CCN(C)CC4)cc3)ncn2)c(OC)c1	62

With those in mind, consider the next molecule.
Fill in: EPHB1 (human) residual activity for `O=C(Nc1nc2cc(C(F)(F)F)cc(NC3CC3)n2n1)c1cccnc1` = 106

---

molecular target: TAOK1 (human); test: radiometric filter-binding kinase assay; conditions: compound 0.01 µM
measured_property: residual activity (%)
Report the figure in % without appending any unit label.

compound	unit_name	residual activity
CNC(=O)C1[C@H]2O[C@@](C)([C@@H]1N)n1c3ccccc3c3c4c(c5c6ccccc6n2c5c31)C(=O)NC4 (some centres undefined)	%	53

Fill in: TAOK1 (human) residual activity for `COc1ccc(N(C(=O)Nc2c(C)cccc2C)c2cc(Nc3ccc(N4CCN(C)CC4)cc3)ncn2)c(OC)c1` = 85

Fill in: TAOK1 (human) residual activity for `O=C(Nc1nc2cc(C(F)(F)F)cc(NC3CC3)n2n1)c1cccnc1` = 91

Fill in: TAOK1 (human) residual activity for COc1cc(O)c2c(c1)[C@H]1OC1C[C@H](O)[C@H](O)C(=O)/C=C\C[C@H](C)OC2=O (some centres undefined) = 106

---

molecular target: BTK (human) (UniProt Q06187); test: radiometric filter-binding kinase assay; settings: compound 0.1 µM
Sequence (Q06187 whole entry, looked up): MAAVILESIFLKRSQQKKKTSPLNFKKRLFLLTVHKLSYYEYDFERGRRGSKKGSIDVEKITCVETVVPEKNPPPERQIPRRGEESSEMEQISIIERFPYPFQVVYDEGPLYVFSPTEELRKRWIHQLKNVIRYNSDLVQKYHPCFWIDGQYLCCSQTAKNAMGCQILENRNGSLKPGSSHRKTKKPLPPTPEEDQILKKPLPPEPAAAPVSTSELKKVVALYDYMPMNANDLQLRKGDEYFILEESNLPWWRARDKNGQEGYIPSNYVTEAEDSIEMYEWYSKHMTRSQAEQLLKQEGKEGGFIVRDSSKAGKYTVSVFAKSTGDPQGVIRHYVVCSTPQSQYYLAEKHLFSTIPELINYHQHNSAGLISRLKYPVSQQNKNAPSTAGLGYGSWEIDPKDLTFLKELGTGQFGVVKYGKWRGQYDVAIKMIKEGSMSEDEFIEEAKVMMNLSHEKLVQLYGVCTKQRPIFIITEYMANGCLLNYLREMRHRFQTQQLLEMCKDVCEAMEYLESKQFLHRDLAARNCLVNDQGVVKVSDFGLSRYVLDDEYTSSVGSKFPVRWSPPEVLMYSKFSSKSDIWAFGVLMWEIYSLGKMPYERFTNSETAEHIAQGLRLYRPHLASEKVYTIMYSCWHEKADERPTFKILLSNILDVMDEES
measured_property: residual activity
Note: a bare number is incomplete; add the unit.

Consider the reported residual activity for these compounds:
mol_smiles	result
NC1(c2ccc(-c3nc4ccn5c(=O)[nH]nc5c4cc3-c3ccccc3)cc2)CCC1	87%
O=C(NCCCNc1nc(Nc2cccc(CN3CCOCC3)c2)ncc1C1CC1)C1CCC1	89%
CCn1c(-c2nonc2N)nc2cncc(CNC3CCNCC3)c21	92%
CCc1cncnc1N1CCN(Cc2nc3cc(C(F)(F)F)ccc3[nH]2)CC1	83%
C/C(=C1/C(=O)Nc2ccc(NC(N)=O)cc21)c1ccc[nH]1	93%
COc1ccc(-n2ncc3cnc(Nc4cc(OC)c(OC)c(OCCCN5CCN(C)CC5)c4)nc32)cc1	22%

The recorded residual activity for entry `O=C(Nc1nc2cc(C(F)(F)F)cc(NC3CC3)n2n1)c1cccnc1` equals 103%

The recorded residual activity for entry `CNc1nc(-c2ccc3c(N)n[nH]c3c2)cc(N2C[C@@H](C(=O)NC3CCCCC3)CC[C@H]2C)n1` equals 121%

The recorded residual activity for entry `Cc1ccc(Sc2cnc(Nc3cccc(Br)n3)s2)cc1C(=O)N1CCN(C(=O)CN)CC1` equals 96%

The recorded residual activity for entry `O=C(N[C@@H](COc1ccc2[nH]c(=O)[nH]c2c1)c1ccccc1)c1cccn(Cc2ccc(F)c(F)c2)c1=O` equals 109%
